For each of the compounds below, state its log10 of EC50.
system: MKN45 cells; assay: MKN45 cell proliferation assay (Cell-Titer-Glo, 120 hr); format: cell-based; details: Homo sapiens, MKN-45, 120 h, read-out: MKN45 Cell Prolif. 120 hr EC50
Values reflect log10 of reported EC50 (nM).

Looking up O=C1CC[C@H](N2Cc3cc(O[C@H]4CCN(Cc5cc(F)c6nc(N7C[C@H]8CCO[C@H]8C7)ncc6c5)C4)ccc3C2=O)C(=O)N1 (single isomer, unassigned) [Example 9] , I see its log10 of EC50 listed as 1.04

Looking up COC[C@@H]1CN(Cc2cc(F)c3nc(N4C[C@H]5C[C@@H](C4)O5)ccc3c2)C[C@H]1Oc1ccc2c(c1)CN([C@H]1CCC(=O)NC1=O)C2=O [Example 47] , I see its log10 of EC50 listed as 0.00

Looking up COC[C@@H]1CN(Cc2ccc3nc(C4CCOCC4)cnc3c2)C[C@H]1Oc1ccc2c(c1)CN([C@H]1CCC(=O)NC1=O)C2=O [Example 136] , I see its log10 of EC50 listed as 1.61

Looking up COC[C@@H]1CN(Cc2ccc3nc(N4C[C@@H]5CCO[C@@H]5C4)ccc3c2)C[C@H]1Oc1ccc2c(c1)CN([C@H]1CCC(=O)NC1=O)C2=O (single isomer, unassigned) [Example 16] , I see its log10 of EC50 listed as 0.30

Looking up COC[C@@H]1CN(Cc2cc(F)c3nc(C4CCC(C(C)(C)O)CC4)ncc3c2)C[C@H]1Oc1ccc2c(c1)CN([C@H]1CCC(=O)NC1=O)C2=O (relative stereo) [Example 111] , I see its log10 of EC50 listed as 0.00

Looking up COC[C@@H]1CN(Cc2cc(F)c3nc(COC4CCOCC4)ccc3c2)C[C@H]1Oc1ccc2c(c1)CN([C@H]1CCC(=O)NC1=O)C2=O [Example 33] , I see its log10 of EC50 listed as 0.00

Looking up COC[C@@H]1CN(Cc2ccc3nc(C4CCOCC4)ccc3n2)C[C@H]1Oc1ccc2c(c1)CN([C@H]1CCC(=O)NC1=O)C2=O [Example 128] , I see its log10 of EC50 listed as 1.04

Looking up COC[C@@H]1CN(Cc2cc(F)c3nc(N4CCC(OC)C4)ccc3c2)C[C@H]1Oc1ccc2c(c1)CN([C@H]1CCC(=O)NC1=O)C2=O (single isomer, unassigned) [Example 97] , I see its log10 of EC50 listed as 0.00

Looking up COC[C@@H]1CN(Cc2ccc3nc(N4CCN(C5COC5)CC4)ccc3c2)C[C@H]1Oc1ccc2c(c1)CN([C@H]1CCC(=O)NC1=O)C2=O [Example 104] , I see its log10 of EC50 listed as 0.00

Looking up COC[C@@H]1CN(Cc2ccc3nc(N4CCN(C(C)=O)C5(CC5)C4)ncc3c2)C[C@H]1Oc1ccc2c(c1)CN([C@H]1CCC(=O)NC1=O)C2=O [Example 94] , I see its log10 of EC50 listed as 0.30

Looking up COC[C@@H]1CN(Cc2ccc3nc(N4C[C@H]5CCO[C@H]5C4)ccc3c2)C[C@H]1Oc1ccc2c(c1)CN([C@H]1CCC(=O)NC1=O)C2=O (single isomer, unassigned) [Example 5] , I see its log10 of EC50 listed as 0.00

Looking up O=C1CC[C@H](N2Cc3cc(O[C@H]4CN(Cc5cc(F)c6nc(C7CCOCC7)ccc6c5)C[C@@H]4c4ccccc4)ccc3C2=O)C(=O)N1 (relative stereo) [Example 145] , I see its log10 of EC50 listed as 1.52

Looking up COC[C@@H]1CN(Cc2cc(F)c3nc(N4CCN(C(C)=O)C5(CC5)C4)ccc3c2)C[C@H]1Oc1ccc2c(c1)CN([C@H]1CCC(=O)NC1=O)C2=O [Example 92] , I see its log10 of EC50 listed as 0.00

Looking up COC[C@@H]1CN(Cc2cc(F)c3nc(C(=O)N(C)C4CCOCC4)ccc3c2)C[C@H]1Oc1ccc2c(c1)CN([C@H]1CCC(=O)NC1=O)C2=O [Example 117] , I see its log10 of EC50 listed as 0.60

Looking up COC[C@@H]1CN(Cc2cc(F)c3nc(CC(C)(C)O)ncc3c2)C[C@H]1Oc1ccc2c(c1)CN([C@H]1CCC(=O)NC1=O)C2=O [Example 107] , I see its log10 of EC50 listed as 1.11

Looking up COC[C@@H]1CN(Cc2cc(F)c3nc(C4CCCO4)ccc3c2)C[C@H]1Oc1ccc2c(c1)CN(C1CCC(=O)NC1=O)C2=O (relative stereo) [Example 65] , I see its log10 of EC50 listed as 0.30

Looking up COC[C@@H]1CN(Cc2cc(F)c3nc(C4CCCCO4)ccc3c2)C[C@H]1Oc1ccc2c(c1)CN([C@H]1CCC(=O)NC1=O)C2=O (relative stereo) [Example 69] , I see its log10 of EC50 listed as 0.00

Looking up COC[C@@H]1CN(Cc2cc3ccc(C(=O)N(C)C)cc3cn2)C[C@H]1Oc1ccc2c(c1)CN([C@H]1CCC(=O)NC1=O)C2=O [Example 115] , I see its log10 of EC50 listed as 0.95

Looking up O=C1CC[C@H](N2Cc3cc(O[C@@H]4CN(Cc5cc(F)c6ncc(N7CCOCC7)cc6c5)C[C@H]4COC(F)(F)F)ccc3C2=O)C(=O)N1 [Example 140] , I see its log10 of EC50 listed as 0.00

Looking up COC[C@@H]1CN(Cc2cc(F)c3nc(C4(O)CCOCC4)ccc3c2)C[C@H]1Oc1ccc2c(c1)CN([C@H]1CCC(=O)NC1=O)C2=O [Example 60] , I see its log10 of EC50 listed as 0.48

Looking up COC[C@@H]1CN(Cc2ncc3cc(N4CCOCC4)ccc3c2F)C[C@H]1Oc1ccc2c(c1)CN([C@H]1CCC(=O)NC1=O)C2=O [Example 71] , I see its log10 of EC50 listed as 0.00

Looking up Cc1cc([C@H]2CN(Cc3cc(F)c4nc(C5CCOCC5)ccc4c3)C[C@@H]2Oc2ccc3c(c2)CN([C@H]2CCC(=O)NC2=O)C3=O)cc(C)n1 (relative stereo) [Example 147] , I see its log10 of EC50 listed as 2.49
